Reported pIC50 values for a set of compounds
Target: human GSK3α (Homo sapiens, UniProt P49840)
Construct: Full length human GSK3α or GSK3B expressed as N-terminal GST fusion proteins; GST (N); purchased Carna Biosciences (Japan); host or cells: baculovirus host
Sequence (P49840 whole entry, the tested form may be a part): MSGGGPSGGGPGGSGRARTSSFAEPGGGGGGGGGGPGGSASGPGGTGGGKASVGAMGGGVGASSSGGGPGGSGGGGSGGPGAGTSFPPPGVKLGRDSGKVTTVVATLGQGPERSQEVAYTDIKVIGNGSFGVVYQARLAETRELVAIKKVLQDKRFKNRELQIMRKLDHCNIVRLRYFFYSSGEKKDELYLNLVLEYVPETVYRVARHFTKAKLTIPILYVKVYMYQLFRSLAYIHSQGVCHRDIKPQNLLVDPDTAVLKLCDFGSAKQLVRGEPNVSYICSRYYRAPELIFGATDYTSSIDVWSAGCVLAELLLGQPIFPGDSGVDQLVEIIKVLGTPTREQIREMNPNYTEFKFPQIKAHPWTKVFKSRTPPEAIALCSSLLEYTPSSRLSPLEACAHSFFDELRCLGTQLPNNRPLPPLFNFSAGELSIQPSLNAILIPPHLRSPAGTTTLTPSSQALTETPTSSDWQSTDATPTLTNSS
Experiment: In vitro enzymatic activity assay, GSK3α
Assay type: biochemical
Details: 1.0 mM ATP, 1.0 μM peptide substrate, 120 min, 25° C, read-out: Enzyme GSK3α (IC50)
Procedure: Full length human GSK3α or GSK3B expressed as N-terminal GST fusion proteins in baculovirus host were purchased from Carna Biosciences (Japan). The kinase was pre-incubated with ATP (adenosine-5′-triphosphate) for 45 min, then incubated with tested compounds for another 45 min in assay buffer that contains 100 mM HEPES (N-2-hydroxyethylpiperazine-N′-2-ethanesulfonic acid), pH 7.5, 10 mM MgCl2, 1.0 mM DTT, and 0.015% Briji-35. […] IC50 value was determined from the 4-parameter logistic curve fitting.
pIC50: −log10 of the molar value.

- compound: "CNC(C)c1cncc(NC(=O)c2c(N)ncn(-c3c(Cl)cc(C#N)cc3Cl)c2=O)c1 (single isomer, unassigned)"
  pIC50: 8.02
- compound: "COCC[C@@H](N)c1cncc(NC(=O)c2c(N)ncn(-c3c(Cl)cccc3Cl)c2=O)c1 (single isomer, unassigned)"
  pIC50: 7.82
- compound: "CCNCc1cncc(NC(=O)c2c(N)ncn(-c3c(Cl)cc(C(F)(F)F)cc3Cl)c2=O)c1"
  pIC50: 8.08
- compound: "CNC(C)c1cncc(NC(=O)c2c(N)ncn(-c3c(Cl)cc(Cl)cc3Cl)c2=O)c1 (single isomer, unassigned) [Example 13]"
  pIC50: 7.75
- compound: "C[C@@H](N)c1cncc(NC(=O)c2c(N)ncn(-c3c(Cl)cc(C(F)F)cc3Cl)c2=O)c1 (single isomer, unassigned)"
  pIC50: 8.10
- compound: "COCc1cc(C)c(-n2cnc(N)c(C(=O)Nc3cncc(C4CNC(=O)CN4)c3)c2=O)c(C)c1 (single isomer, unassigned) [Example 160]"
  pIC50: 6.79
- compound: "COCc1cc(C)c(-n2cnc(N)c(C(=O)Nc3cncc([C@H]4CCCCN4)c3)c2=O)c(C)c1"
  pIC50: 8.34
- compound: "COc1cc(Cl)c(-n2cnc(N)c(C(=O)Nc3cncc(CNC(C)C)c3)c2=O)c(Cl)c1"
  pIC50: 7.85
- compound: "COc1ccccc1-n1cnc(N)c(C(=O)Nc2cccc(C3CCCN3)c2N2CCOCC2)c1=O (single isomer, unassigned)"
  pIC50: 6.55
- compound: "CCOc1cc(Cl)c(-n2cnc(N)c(C(=O)Nc3cncc(C4(N)CCC4)c3)c2=O)c(Cl)c1"
  pIC50: 8.10
- compound: "COCc1cc(Cl)c(-n2cnc(N)c(C(=O)Nc3cncc([C@@H]4CCCCN4)c3)c2=O)c(Cl)c1"
  pIC50: 8.19
- compound: "COc1cc(C)c(-n2cnc(N)c(C(=O)Nc3cccc([C@@H]4CCCN4)c3)c2=O)c(Cl)c1 (atropisomer, axis not shown)"
  pIC50: 8.14
- compound: "Cc1cc(C(F)CF)cc(C)c1-n1cnc(N)c(C(=O)Nc2cncc(C3CCCCCN3)c2)c1=O (single isomer, unassigned) [Example 115]"
  pIC50: 8.12
- compound: "COCc1cc(C)c(-n2cnc(N)c(C(=O)Nc3cncc(C4(N)CCC4)c3)c2=O)c(C)c1"
  pIC50: 7.49
